# experimentalTarget: T1, N-Terminal CRH (human and mouse, C-terminal K-Biotin)
# T1 construct: also called N-Ter-CRH (CT-Bion)
# T1 peptide: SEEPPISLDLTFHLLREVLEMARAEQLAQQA
# methodDescription: ELISA, biotin peptide on streptavidin plate
Here the recorded pEC50 is given for each entry.
Units for pEC50: none; it is -log10 of a concentration expressed in mol/L.

I'd like to know its pEC50. The binder in question is PR302309-8 (antibody, human IgG1, kappa, V domains shown, Humanized variant of PR302309) VH: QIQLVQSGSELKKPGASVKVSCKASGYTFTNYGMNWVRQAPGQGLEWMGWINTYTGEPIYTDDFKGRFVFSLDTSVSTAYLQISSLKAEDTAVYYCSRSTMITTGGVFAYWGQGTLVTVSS VL: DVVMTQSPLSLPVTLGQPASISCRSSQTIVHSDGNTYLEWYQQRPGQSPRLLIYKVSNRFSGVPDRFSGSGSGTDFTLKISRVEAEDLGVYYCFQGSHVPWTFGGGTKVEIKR
10.60

I'd like to know its pEC50. The binder in question is PR302064 (antibody, human IgG1, kappa, V domains shown, Humanized variant of PR301777) VH: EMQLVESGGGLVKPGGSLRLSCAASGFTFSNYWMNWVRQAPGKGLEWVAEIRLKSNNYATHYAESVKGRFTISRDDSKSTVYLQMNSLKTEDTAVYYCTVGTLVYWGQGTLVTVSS VL: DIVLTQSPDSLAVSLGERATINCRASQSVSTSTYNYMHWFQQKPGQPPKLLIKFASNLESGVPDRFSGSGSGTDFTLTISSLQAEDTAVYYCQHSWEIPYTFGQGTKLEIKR
10.66

I'd like to know its pEC50. The binder in question is PR302309-11 (antibody, human IgG1, kappa, V domains shown, Humanized variant of PR302309) VH: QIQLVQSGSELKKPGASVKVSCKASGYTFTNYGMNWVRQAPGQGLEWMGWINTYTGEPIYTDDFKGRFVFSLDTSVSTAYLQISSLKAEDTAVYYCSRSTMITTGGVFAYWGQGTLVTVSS VL: DIVMTQTPLSSPVTLGQPASISCRSSQTIVHSDGNTYLEWLQQRPGQPPRLLIYKVSNRFSGVPDRFSGSGAGTDFTLKISRVEAEDVGVYYCFQGSHVPWTFGGGTKVEIKR
10.55

I'd like to know its pEC50. The binder in question is PR302334-26 (antibody, human IgG1, kappa, V domains shown, Humanized variant of PR302334) VH: EVQLVESGGGLVQPGGSLRLSCAASGFTFSTYAMSWVRQAPGKGLEWVASIRSGGTTYYPDSVKGRFTISRDNSKNSLYLQMNSLRAEDTAVYYCTRGIDWGQGTTVTVSS VL: DIVMTQSPDSLAVSLGERATINCKASQSVNNDVAWYQQKPGQPPRLLIYYASNRYTGVPDRFSGSGSGTDFTLTISSLQAEDLAVYFCQQDYSSWTFGGGTKVEIKR
10.54
